target: dopamine D-1 receptor
conditionParameters: read-out: EC50 (agonist activity in adenylate cyclase assay); tissue from goldfish retina or rat striatum
Below is a list of entries, each paired with its recorded log10(EC50) value.
measurementType: log10(EC50) (log10 of the value in nM)

compound	target	log10(EC50)
CCNC[C@@H]1O[C@H](C(C)(C)C)Cc2c1ccc(O)c2O	dopamine D-1 receptor	1.94
NC[C@@H]1O[C@H](CN2Cc3ccccc3C2=O)Cc2c1ccc(O)c2O (relative stereo)	dopamine D-1 receptor	1.70
CC(C)(C)C1C=C(CN)c2ccc(O)c(O)c2C1 (stereo not drawn)	dopamine D-1 receptor	2.04
NC[C@@H]1O[C@H](CCC2CCCCC2)Cc2c1ccc(O)c2O (relative stereo)	dopamine D-1 receptor	2.83
CN1CCC2=C(C1)c1ccc(O)c(O)c1CC2c1ccccc1 (stereo not drawn) [Example 246]	dopamine D-1 receptor	2.34
NCC1OC2(CCCCC2)Cc2c1ccc(O)c2O (stereo not drawn)	dopamine D-1 receptor	1.85
CNC[C@H]1O[C@@H](CC2CCCCC2)Cc2c1ccc(O)c2O (relative stereo)	dopamine D-1 receptor	0.92
CCC(=O)Oc1ccc2c(c1OC(=O)CC)CC(c1ccccc1)C=C2CN (stereo not drawn)	dopamine D-1 receptor	2.70

====

System: dopamine D-1 receptor
conditionParameters: dopamine = 100; goldfish retina or rat striatum
Where a name gives a salt, the structure may show the parent alone.
measurementType: Intrinsic Activity (adenylate cyclase assay)

compound	target	testValue
COc1ccc(OC[C@H]2Cc3c(ccc(O)c3O)[C@@H](CN)O2)cc1 (relative stereo)	dopamine D-1 receptor	67
CC(C)CC1Cc2c(ccc(O)c2O)C(CN)O1 (centres unmarked)	dopamine D-1 receptor	114
Cc1cc2c(c(O)c1O)C[C@@H](C1CCCCC1)O[C@H]2CN (relative stereo) [Example 177, Hydrochloride]	dopamine D-1 receptor	62
CNC[C@@H]1O[C@H](C(C)(C)C)Cc2c1ccc(O)c2O.Cl	dopamine D-1 receptor	124
Oc1ccc2c(c1O)CC(c1ccccc1)C1=C2CNCC1 (centres unmarked) [Example 200]	dopamine D-1 receptor	120

====

target: dopamine D-1 receptor
conditionParameters: read-out: EC50 (agonist activity in adenylate cyclase assay); tissue from goldfish retina or rat striatum
Where a name gives a salt, the structure may show the parent alone.
measurementType: EC50 (nM)

molecule	testValue
CNC[C@H]1O[C@@H](CC(C)(C)C)Cc2c1ccc(O)c2O (relative stereo)	120
CNC[C@H]1O[C@@H](CCO)Cc2c1ccc(O)c2O (relative stereo)	65
CNC[C@@H]1O[C@H](CC23CC4CC(CC(C4)C2)C3)Cc2c1ccc(O)c2O (relative stereo)	9.7
CNC[C@@H]1O[C@H](c2ccccc2)Cc2c1ccc(O)c2O	51
CNCC1OC2(CCCCCCC2)Cc2c1ccc(O)c2O (stereo not drawn)	87
CC(C)CC1Cc2c(ccc(O)c2O)C(CN)O1 (stereo not drawn)	5
NC[C@H]1Cc2c(ccc(O)c2O)[C@@H](CN)O1 (relative stereo) [Example 154, Dihydrochloride]	100
CNC[C@H]1C[C@@H](c2ccccc2)Cc2c1ccc(O)c2O (relative stereo)	6
NCC1c2ccc(O)c(O)c2CC(c2ccccc2)C1CCO (stereo not drawn) [Example 45, Formic Acid Salt]	60
CC(C)(C)c1ccc(OC[C@H]2Cc3c(ccc(O)c3O)[C@@H](CN)O2)cc1 (relative stereo)	30
CCCC[C@@H]1Cc2c(ccc(O)c2O)[C@H](CN)O1 (relative stereo)	7
C=CC(C)[C@H]1Cc2c(ccc(O)c2O)[C@@H](CN)O1 (relative stereo)	9
NC[C@@H]1O[C@H](c2ccccc2)Cc2c1cc(Br)c(O)c2O (relative stereo)	170
CN(C)C[C@@H]1O[C@H](c2ccccc2)Cc2c1ccc(O)c2O (relative stereo)	370
C#CCNC[C@H]1O[C@@H](C2CCCCC2)Cc2c1ccc(O)c2O (relative stereo)	56
CC(C)C(=O)NC[C@H]1Cc2c(ccc(O)c2O)[C@@H](CN)O1 (relative stereo)	180
CNCC1OC2(CCCCCCCC2)Cc2c1ccc(O)c2O (stereo not drawn)	240
Oc1ccc2c(c1O)C[C@@H](c1ccccc1)C[C@H]2[C@H]1CCCN1 (relative stereo) [Example 180, Hydrobromide]	80
Oc1ccc2c(c1O)CC1(CCCCC1)C1=C2CNCC1	68
NC[C@H]1O[C@@H](CNC(=O)c2ccccc2)Cc2c1ccc(O)c2O (relative stereo)	200
CC(C)=CCCC(C)[C@@H]1Cc2c(ccc(O)c2O)[C@H](CN)O1 (stereo partly drawn)	840
CN(C)C[C@@H]1O[C@H](C2(C)CCCCC2)Cc2c1ccc(O)c2O (relative stereo)	120
CN(C)C[C@@H]1O[C@H](C(C)(C)C)Cc2c1ccc(O)c2O	66
Br.NC[C@@H]1C[C@H](C2CCCCC2)Cc2c1ccc(O)c2O [Example 37, Hydrobromide]	31
NCC1=CC(c2ccc3ccccc3c2)Cc2c1ccc(O)c2O (stereo not drawn)	1100
NC[C@@H]1O[C@H](C2(c3ccccc3)CCCCC2)Cc2c1ccc(O)c2O (relative stereo)	70
CN1CCC2=C(C1)c1ccc(O)c(O)c1CC21CCCCCC1	200
C=CCN(C)C[C@H]1O[C@@H](CCCCCC)Cc2c1ccc(O)c2O (relative stereo)	21000
C=CCNC[C@H]1O[C@@H](c2ccccc2)Cc2c1ccc(O)c2O (stereo in doubt)	46
CNCC1OC(CC2CCCC2)Cc2c1ccc(O)c2O (stereo not drawn)	10
NCC1CC2(CCCCCC2)Cc2c1ccc(O)c2O (stereo not drawn)	680
CN(C)C[C@@H]1O[C@H](C2(c3ccccc3)CCCCC2)Cc2c1ccc(O)c2O (relative stereo)	330
NC[C@H]1O[C@@H](CNC(=O)c2cccnc2)Cc2c1ccc(O)c2O (relative stereo)	130

====

Below is a list of entries, each paired with its recorded Ki value.
target: dopamine D-2 receptor (Rattus norvegicus)
Sequence (P61169 whole entry): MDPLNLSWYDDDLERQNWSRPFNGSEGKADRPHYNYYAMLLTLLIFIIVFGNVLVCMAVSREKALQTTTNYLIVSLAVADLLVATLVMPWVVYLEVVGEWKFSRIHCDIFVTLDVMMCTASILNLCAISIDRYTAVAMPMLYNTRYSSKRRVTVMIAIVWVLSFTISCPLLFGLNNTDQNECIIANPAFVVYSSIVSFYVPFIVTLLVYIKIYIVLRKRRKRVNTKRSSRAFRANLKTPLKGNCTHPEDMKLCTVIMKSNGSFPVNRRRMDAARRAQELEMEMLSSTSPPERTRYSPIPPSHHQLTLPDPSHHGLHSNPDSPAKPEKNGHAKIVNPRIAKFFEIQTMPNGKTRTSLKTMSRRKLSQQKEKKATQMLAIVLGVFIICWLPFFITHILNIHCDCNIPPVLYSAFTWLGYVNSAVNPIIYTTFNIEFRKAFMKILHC
measurementDescription: biochemical
Type: binding
conditionParameters: rat caudate, [125I]-p-aminophenylethyl spiroperidol; read-out: D-2 Ki
Where a name gives a salt, the structure may show the parent alone.

compound	qualifier	Ki (nM)
NCC1OC(c2ccccc2)Cc2c1ccc(O)c2O (centres unmarked) [Example 96]	=	870
NC[C@H]1O[C@@H](COc2ccccc2)Cc2c1ccc(O)c2O (relative stereo) [Example 55]	=	1500
C#CC[C@H]1Cc2c(ccc(O)c2O)[C@@H](CN)O1 (relative stereo) [Example 110, Hydrochloride]	=	1100
CN(C)C[C@@H]1O[C@H](C2CCCCC2)Cc2c1ccc(O)c2O (relative stereo) [Example 228]	>	10000
CC(C)(C)CC1Cc2c(ccc(O)c2O)C2=C1CCNC2 (centres unmarked) [Example 242]	=	2000
NCC1CC2(CCCCCCC2)Cc2c1ccc(O)c2O (centres unmarked) [Example 197]	>	5000
Br.CN1CCC2=C(C1)c1ccc(O)c(O)c1CC2c1ccccc1 (centres unmarked) [Example 210, Hydrobromide]	=	1300
NCCC(=O)Oc1ccc2c(c1OC(=O)CCN)CC(c1ccccc1)C=C2CN (centres unmarked) [Example 27]	=	6600
NC[C@@H]1O[C@H](Cc2ccccc2)Cc2c1ccc(O)c2O (relative stereo) [Example 60]	=	2200
CCCC[C@H]1Cc2c(ccc(O)c2O)[C@@H](CNC)O1 (relative stereo) [Example 135]	=	1600
CC(=O)NC[C@H]1Cc2c(ccc(O)c2O)[C@@H](CN)O1 (relative stereo) [Example 161]	=	170
NC[C@@H]1O[C@H](C2(c3ccccc3)CCCCC2)Cc2c1ccc(O)c2O (relative stereo) [Example 223]	=	2700
CNC[C@@H]1O[C@H](C2(C)CCCCC2)Cc2c1ccc(O)c2O (relative stereo) [Example 226]	=	1500
NC[C@H]1C[C@@H](c2ccc3ccccc3c2)Cc2c1ccc(O)c2O (relative stereo) [Example 43]	=	12000
NCC1=CC(c2cccc3ccccc23)Cc2c1ccc(O)c2O (centres unmarked) [Example 41]	=	2500
C=CCNC[C@@H]1O[C@H](C(C)(C)C)Cc2c1ccc(O)c2O [Example 129]	=	3100
CNC[C@@H]1O[C@H](C2(c3ccccc3)CCCCC2)Cc2c1ccc(O)c2O (relative stereo) [Example 225]	=	1700

====

Below is a list of entries, each paired with its recorded log10 Ki value.
target: dopamine D-2 receptor (Rattus norvegicus)
measurementDescription: biochemical
Type: binding
conditionParameters: rat caudate, [125I]-p-aminophenylethyl spiroperidol; read-out: D-2 Ki
Structures can show the parent of a compound that is named as a salt.
measurementType: log10 Ki (log10 of the value in µM)

compound	testValue
NC[C@@H]1O[C@H](COCc2ccccc2)Cc2c1ccc(O)c2O (relative stereo)	0.66
Oc1ccc2c(c1O)C[C@@H](c1ccccc1)O[C@H]2[C@@H]1CCCN1	-0.33
CNCC1OC2(CCCCCC2)Cc2c1ccc(O)c2O (stereo not shown)	0.41
NC[C@@H]1O[C@H](C(c2ccccc2)c2ccccc2)Cc2c1ccc(O)c2O (relative stereo)	0.45
NC[C@@H]1S[C@H](c2ccccc2)Cc2c1ccc(O)c2O (relative stereo) [Example 186, Hydrochloride]	1.53
CNC[C@H]1O[C@@H](CC(C)(C)C)Cc2c1ccc(O)c2O (relative stereo)	0.15
CCCN(CCC)CC1=CC(c2ccccc2)Cc2c1ccc(O)c2O (stereo not shown)	1.08
NC[C@H]1O[C@@H](CN2CCOCC2)Cc2c1ccc(O)c2O (relative stereo)	1.20
Br.N[C@@H]1CCc2cc(O)c(O)c3c2[C@H]1C[C@H](c1ccccc1)C3 (relative stereo) [Example 182, Hydrobromide]	0.34
NCC1=CC(c2ccc3ccccc3c2)Cc2c1ccc(O)c2O (stereo not shown)	1.43
CC(C)(C)[C@H]1Cc2c(ccc(O)c2O)[C@@H](CN)O1 (relative stereo) [Example 48, Hydrochloride]	1.11
NC[C@@H]1O[C@H](CC23CC4CC(CC(C4)C2)C3)Cc2c1ccc(O)c2O (relative stereo)	-0.05
C=CCC[C@@H]1Cc2c(ccc(O)c2O)[C@H](CN)O1 (relative stereo)	1.53
C=CCN(C)C[C@H]1O[C@@H](C2CCCCC2)Cc2c1ccc(O)c2O (relative stereo)	0.48

// data source = patent US5621133A
